# Tested on: JVM-2
# test_summary: Cytotoxicity against human JVM2 cells after 72 hrs by XTT assay
# Type: functional, cell-based
# test_context: JVM-2, 72 h

compound_structure_string	study_target	IC50
CC(/C=C/[C@@H]1C[C@]2(CO2)CC(C)(C)O1)=C\C[C@H]1CC[C@@H](NC(=O)/C=C\[C@H](C)O)CC1	JVM-2	1500 nM
CC(/C=C/[C@@H]1C[C@]2(CO2)CC(C)(C)O1)=C\C[C@H]1CC[C@@H](NC(=O)/C=C\[C@H](C)OC(=O)N2CCN(C3CCCCCC3)CC2)CC1	JVM-2	> 1000 nM
CC(/C=C/[C@@H]1C[C@]2(CO2)CC(C)(C)O1)=C\C[C@H]1CC[C@@H](NC(=O)/C=C\[C@H](C)OC(=O)N2CCN(CCO)CC2)CC1	JVM-2	> 500 nM
CC(/C=C/[C@@H]1C[C@]2(CO2)CC(C)(C)O1)=C\C[C@H]1CC[C@@H](NC(=O)/C=C\[C@H](C)OC(=O)N2CCN(C)CC2)CC1	JVM-2	> 500 nM
CC(/C=C/[C@@H]1C[C@](O)(CCl)CC(C)(C)O1)=C\C[C@H]1CC[C@@H](NC(=O)/C=C\[C@H](C)OC(=O)N2CCN(C3CCCCCC3)CC2)CC1	JVM-2	> 10000 nM
COc1cccc(N2CCN(C(=O)O[C@@H](C)/C=C\C(=O)N[C@H]3CC[C@@H](C/C=C(C)/C=C/[C@@H]4C[C@]5(CO5)CC(C)(C)O4)CC3)CC2)c1	JVM-2	> 500 nM
CC(/C=C/[C@@H]1C[C@]2(CO2)CC(C)(C)O1)=C\C[C@H]1CC[C@@H](NC(=O)/C=C\[C@H](C)OC(=O)C(C)C)CC1	JVM-2	190 nM

* * *

# System: HFF
# test_summary: Cytotoxicity against HFF cells after 72 hrs by XTT assay
# Format: cell-based
# test_context: Homo sapiens
pIC50: −log10 of the molar value.
property: pIC50

compound_structure_string	measured_result
CC(/C=C/[C@@H]1C[C@]2(CO2)CC(C)(C)O1)=C\C[C@H]1CC[C@@H](NC(=O)/C=C\[C@H](C)OC(=O)C(C)C)CC1	< 5.00

* * *

# test_summary: Cytotoxicity against human NB-EBc1 cells after 72 hrs by XTT assay
# Format: functional, cell-based
# test_context: NB-EBc1, 72 h
property: IC50

compound_structure_string	measured_result
CC(/C=C/[C@@H]1C[C@]2(CO2)CC(C)(C)O1)=C\C[C@H]1CC[C@@H](NC(=O)/C=C\[C@H](C)OC(=O)C(C)C)CC1	0.66 µM

* * *

# Tested on: MOLT-4
# test_summary: Cytotoxicity against human MOLT4 cells after 72 hrs by XTT assay
# Assay type: functional, cell-based
# test_context: MOLT-4, 72 h
property: IC50

compound_structure_string	study_target	measured_result
CC(/C=C/[C@@H]1C[C@]2(CO2)CC(C)(C)O1)=C\C[C@H]1CC[C@@H](NC(=O)/C=C\[C@H](C)OC(=O)C(C)C)CC1	MOLT-4	80 nM

* * *

# test_summary: Cytotoxicity against human BT-3 cells after 72 hrs by XTT assay
# Format: functional, cell-based
# test_context: BT-3, 72 h
property: IC50 (µM)

compound_structure_string	property	measured_result
CC(/C=C/[C@@H]1C[C@]2(CO2)CC(C)(C)O1)=C\C[C@H]1CC[C@@H](NC(=O)/C=C\[C@H](C)OC(=O)C(C)C)CC1	IC50	4.41
